The values you see were collected from a melting point compilation (Tetko et al.; mined from patent text by program, amines drawn as free bases though some values may be those of a salt).

measurement_type: melting point

Some solved entries appear below for comparison.
>  <structure_smiles>
COC(=O)[C@@H](Cc1c[nH]c2ccccc12)NS(=O)(=O)c1ccc(OC)cc1

>  <melting point>
120 to 122 °C

$$$$
>  <structure_smiles>
COCCOC(=O)Nc1cccc(C)c1CNc1cccn2c(C=O)c(C)nc12

>  <melting point>
153 to 155 °C

$$$$

Lookup result for CCCCc1nc(COC)c(C(=O)OC)n1Cc1ccc(-c2ccccc2C(=O)O)cc1 ; measured melting point: 106 to 110 °C

---

measurement_type: melting point

Example entries begin here.
>  <structure_smiles>
CC(C)(C)OC(=O)N1CCC(c2nc3cc(-c4ccc(S(C)(=O)=O)cc4F)ccc3o2)CC1

>  <melting point>
144 to 147 °C

$$$$
>  <structure_smiles>
O=c1ccc2c(-n3cnc(-c4ccccc4)c3)nccc2[nH]1

>  <melting point>
263 to 265 °C

$$$$

Given item CC(=O)O[C@@](Cn1cncn1)(c1ccc(F)cc1F)[C@@H](C)S(=O)(=O)Cl , the value recorded as its melting point is 110 to 115 °C
